system: LCLC-97TM1; assay: relative viability (nuclei count vs DMSO), 5 days (fraction); higher = more cells survive; details: first compound 8 µM
relative viability values, listed per item
readout.kind: relative viability

{"molecule": "C=C1C(=O)O[C@@H](CCCCCCCC)[C@@H]1C(=O)O [C-75] + Nc1nc2[nH]cc(CCc3ccc(C(=O)N[C@@H](CCC(=O)O)C(=O)O)cc3)c2c(=O)[nH]1 [Pemetrexed] (partner 0.2 µM)", "readout.value": 0.145}
{"molecule": "C=C1C(=O)O[C@@H](CCCCCCCC)[C@@H]1C(=O)O [C-75] + O=C(c1cc(Cc2n[nH]c(=O)c3ccccc23)ccc1F)N1CCN(C(=O)C2CC2)CC1 [Olaparib] (partner 8 µM)", "readout.value": 0.303}
{"molecule": "C=C1C(=O)O[C@@H](CCCCCCCC)[C@@H]1C(=O)O [C-75] + NC(=O)Nc1cc(-c2cccc(F)c2)sc1C(=O)N[C@H]1CCCNC1 [AZD7762] (partner 0.2 µM)", "readout.value": 0.833}
{"molecule": "C=C1C(=O)O[C@@H](CCCCCCCC)[C@@H]1C(=O)O [C-75] + COc1cccc2cc(-c3nc([C@H]4CC[C@H](C(=O)O)CC4)n4ncnc(N)c34)[nH]c12 [OSI-027] (partner 0.5 µM)", "readout.value": 0.479}
{"molecule": "C=C1C(=O)O[C@@H](CCCCCCCC)[C@@H]1C(=O)O [C-75] + Cc1nc(Nc2ncc(C(=O)Nc3c(C)cccc3Cl)s2)cc(N2CCN(CCO)CC2)n1 [Dasatinib] (partner 0.075 µM)", "readout.value": 0.874}
